# protocol: High Throughput Screening for Foot and Mouth Disease Virus Antivirals; note: nearly all actives have a fitted effect of over 45% in size
# setupConditions: FMDV antiviral cell-based qHTS; series mostly up to 57.9 µM
The campaign covered roughly 410,000 compounds. About 5,100 (1.2%) were called active. Not shown: some 8% with an inconclusive outcome. Calls come from the whole dose curve; tested in HEK293T cells. This is one part of a sample in which actives are shown more often than they occur.
Write down one outcome, taken from active, inactive

Recorded results for 6 compounds are shown here.
COc1ccc(-c2noc(-c3ccc(N4CCN(c5ccccc5)CC4)c([N+](=O)[O-])c3)n2)cc1OC	inactive
COC(=O)c1ccc(CN2CCCC(C(=O)Nc3cccc(-n4cnnn4)c3)C2)cc1 (configuration not stated)	active
CCOc1cccc2sc(N3CCN(C(=O)C4CC4)CC3)nc12	inactive
Cc1ccc(-c2cn3c(n2)sc2cc(C(=O)NCCCc4ccccc4)ccc23)cc1	inactive
CC(C)CNC(=O)C1CCCN(S(=O)(=O)c2ccc(-n3cnnn3)cc2)C1 (configuration not stated)	inactive
COc1cccc(COc2ccc(N(C)S(=O)(=O)c3ccccc3)cc2)c1	inactive

Moving on to another compound below.
Exercise: Entry Cc1cccc(N2CCC(NCc3c(C(=O)N4CCCCC4)nc4c(C)cccn34)CC2)c1 : call = ?
Key: inactive

----------
# protocol: High Throughput Screening for Foot and Mouth Disease Virus Antivirals; note: nearly all actives have a fitted effect of over 45% in size
# setupConditions: FMDV antiviral cell-based qHTS; series mostly up to 57.9 µM
Hit rate of the full screen: of about 410,000 compounds, about 5,100 (1.2%) were called active. About 8% were inconclusive and are not listed. The call rests on the fitted dose curve; tested in HEK293T cells. This is one part of a sample in which actives are shown more often than they occur.
Write down one outcome, taken from t for active, f for inactive

Recorded results for 3 compounds are shown here.
CC1CCCN(Cc2nc3c(c(=O)n(C)c(=O)n3C)n2CC(=O)c2ccccc2)C1 (centres undefined)	f
Cc1ccc(COC(=O)CN2C(=O)NC3(CCCC3)C2=O)cc1	f
CCS(=O)(=O)N1CCc2cc(C(=O)N3CCN(c4ccccc4OC)CC3)ccc21	f

Exercise: Entry O=C(Nc1cccc(F)c1)N1CC[C@@]2(CCCN(C(=O)Oc3ccccc3)C2)C1 : call = ?
Key: f

Exercise: Entry CC1=CC(C)(C)Nc2ccc(OC(=O)CN3C(=O)C4CCCCC4C3=O)cc21 (centres undefined) : call = ?
Key: t

Exercise: Entry Nc1nc2[nH]c(=O)c(=O)[nH]c2c(=O)[nH]1 : call = ?
Key: f

Exercise: Entry COCCn1c(CN2CCC(Cc3ccccc3)CC2)nc2c1c(=O)n(C)c(=O)n2C : call = ?
Key: t

Exercise: Entry O=C(c1ccc2c(c1)N(Cc1ccccc1)C(=O)c1ccccc1S2(=O)=O)N1CCCC1 : call = ?
Key: f

Exercise: Entry CC(C)N1C[C@@H](NCc2ccccc2O)C[C@H]1C(=O)N1CCN(c2cccc(C(F)(F)F)c2)CC1 : call = ?
Key: f

----------
# protocol: High Throughput Screening for Foot and Mouth Disease Virus Antivirals; note: nearly all actives have a fitted effect of over 45% in size
# setupConditions: FMDV antiviral cell-based qHTS; series mostly up to 57.9 µM
Hit rate of the full screen: of about 410,000 compounds, about 5,100 (1.2%) were called active. Roughly 8% stayed inconclusive and do not appear here. The call rests on the fitted dose curve; tested in HEK293T cells. For the sample, actives were picked, then their nearest neighbours and some compounds at random.
Write down one outcome, taken from active, inactive

COc1cccc(C(=O)Nc2ccc(-c3cc(C(F)(F)F)nn3-c3ccccc3)cc2)c1	active
C[C@@H]1C[C@@H]2O[C@H]2/C=C\C=C\C(=O)Cc2c(Cl)c(O)cc(O)c2C(=O)O1	active
FC(F)(F)c1ccccc1-c1nc(-n2ccnc2)c2ccccc2n1	inactive
Cn1c(SCc2ccc(F)cc2)nnc1-c1ccncc1	inactive

Moving on to another compound below.
Exercise: Entry COc1ccc(C(=O)Nc2ccc(-n3nncc3-c3ccccc3)cc2)cc1OC : call = ?
Key: inactive

----------
# protocol: High Throughput Screening for Foot and Mouth Disease Virus Antivirals; note: nearly all actives have a fitted effect of over 45% in size
# setupConditions: FMDV antiviral cell-based qHTS; series mostly up to 57.9 µM
The whole screen tested about 410,000 compounds, of which about 5,100 (1.2%) were called active. Another 8% or so got no clear call; they are omitted. Only a selection was taken, and actives are over-represented in it overall.
assayReadout: outcome

Cc1c(S(=O)(=O)O)oc2c1C(=O)C(=O)c1c-2ccc2c1CCCC2(C)C	inactive
CCOc1ccccc1N(CC)C(=O)Nc1cn(C)c(=O)c2ccccc12	inactive
Cc1cc(NC(=O)c2cccc(Cl)c2)ccc1-c1cc2ccccc2oc1=O	inactive

----------
# protocol: High Throughput Screening for Foot and Mouth Disease Virus Antivirals; note: nearly all actives have a fitted effect of over 45% in size
# setupConditions: FMDV antiviral cell-based qHTS; series mostly up to 57.9 µM
In all, about 410,000 compounds went through this assay and about 5,100 (1.2%) were called active. Roughly 8% stayed inconclusive and do not appear here. Calls come from the whole dose curve; tested in HEK293T cells. The sample holds actives, similar compounds and a random draw of the others, so the mix is not that of the screen.
Write down one outcome, taken from active, inactive

Recorded results for 10 compounds are shown here.
Cc1noc(C)c1-c1nccc(N2CCOCC2)n1	inactive
CC(C)CCNC(=O)c1ccc2c(Cl)c3c(nc2c1)CCC3	inactive
CC1CCC(N2CC(=O)N(CCC3=CCCCC3)C(c3ccc(F)cc3)C2=O)CC1 (stereo not drawn)	inactive
CC(=O)N1CCC(C(=O)Nc2nc(-c3ccccc3)ns2)CC1	active
Cc1ccc(-c2nc(C#N)c(NCCCn3ccnc3)o2)cc1	inactive
CCc1cnc2c(c1SCC(=O)c1ccccc1)c(=O)n(C)c(=O)n2C	inactive
Cc1ccc(-c2nn(CC(C)(C)C)c3ncnc(N)c23)cc1	inactive
Cc1nc2nc(NCc3cccc(Br)c3)[nH]n2c(=O)c1Cc1ccccc1	inactive
CCOC(=O)c1cc2c(=O)n3ccccc3nc2n(CCCOC)c1=NC(=O)C(C)Oc1ccccc1 (stereo not drawn)	inactive
COc1cccc(-c2nc(Nc3ccncc3)c3ccccc3n2)c1	inactive

Exercise: Entry CCOC(=O)c1cc2cc(-c3c(C(=O)OCC)oc4cc(O)cc(O)c4c3=O)ccc2o1 : call = ?
Key: active

Exercise: Entry CC(C)(C)c1ccc(Oc2ccc(N)cc2)cc1 : call = ?
Key: active

Exercise: Entry CCc1nn(CCCC(=O)NCc2ccccc2OC)c(=O)c2cc3occc3n12 : call = ?
Key: inactive

----------
# protocol: High Throughput Screening for Foot and Mouth Disease Virus Antivirals; note: nearly all actives have a fitted effect of over 45% in size
# setupConditions: FMDV antiviral cell-based qHTS; series mostly up to 57.9 µM
Out of some 410,000 compounds screened, about 5,100 (1.2%) were called active. Inconclusive results (about 8%) are left out. The call rests on the fitted dose curve; tested in HEK293T cells. This is one part of a sample in which actives are shown more often than they occur.
Write down one outcome, taken from active, inactive

Recorded results for 4 compounds are shown here.
CC(=O)Nc1cccc(/C(C)=N/NC(=O)c2c(-c3ccccc3Cl)noc2C)c1	active
Cc1cccc(C(=O)OC(C)C(=O)NC2CCCc3ccccc32)c1O (stereo not drawn)	inactive
CCCCCn1c(SCCC(C)C)nc2c1c(=O)[nH]c(=O)n2C	active
COC1=C[C@]23CCCN2CCc2cc4c(cc2[C@@H]3[C@@H]1O)OCO4	inactive

Moving on to another compound below.
Exercise: Entry COc1ccc(Nc2ncnc3ccc(Br)cc23)c(OC)c1 : call = ?
Key: active

----------
# protocol: High Throughput Screening for Foot and Mouth Disease Virus Antivirals; note: nearly all actives have a fitted effect of over 45% in size
# setupConditions: FMDV antiviral cell-based qHTS; series mostly up to 57.9 µM
Out of some 410,000 compounds screened, about 5,100 (1.2%) were called active. About 8% were inconclusive and are not listed. Calls come from the whole dose curve; tested in HEK293T cells. This excerpt belongs to a sample that is enriched for actives.
Write down one outcome, taken from active, inactive

Recorded results for 2 compounds are shown here.
CC1(C)CCSC(/C=C/c2ccccc2)=N1	active
N#Cc1cccc(NC(=O)COC(=O)c2ccccc2C(=O)c2ccc(Cl)c([N+](=O)[O-])c2)c1	active

Moving on to another compound below.
Exercise: Entry CCOC(=O)N1CCN(Cc2ccc3c(c2)CN(C(=O)c2cccc(-n4cccn4)c2)CCO3)CC1 : call = ?
Key: inactive
